molecular target: MMP-9 (Homo sapiens, UniProt P14780); construct: made in house; host or cells: MMP-9-transfected HT1080 cells (spent media); experiment: In vitro MMP inhibition, Ki determination (fluorogenic substrate II); type: biochemical; settings: value outside parentheses
Sequence (P14780 107-707 limits assumed): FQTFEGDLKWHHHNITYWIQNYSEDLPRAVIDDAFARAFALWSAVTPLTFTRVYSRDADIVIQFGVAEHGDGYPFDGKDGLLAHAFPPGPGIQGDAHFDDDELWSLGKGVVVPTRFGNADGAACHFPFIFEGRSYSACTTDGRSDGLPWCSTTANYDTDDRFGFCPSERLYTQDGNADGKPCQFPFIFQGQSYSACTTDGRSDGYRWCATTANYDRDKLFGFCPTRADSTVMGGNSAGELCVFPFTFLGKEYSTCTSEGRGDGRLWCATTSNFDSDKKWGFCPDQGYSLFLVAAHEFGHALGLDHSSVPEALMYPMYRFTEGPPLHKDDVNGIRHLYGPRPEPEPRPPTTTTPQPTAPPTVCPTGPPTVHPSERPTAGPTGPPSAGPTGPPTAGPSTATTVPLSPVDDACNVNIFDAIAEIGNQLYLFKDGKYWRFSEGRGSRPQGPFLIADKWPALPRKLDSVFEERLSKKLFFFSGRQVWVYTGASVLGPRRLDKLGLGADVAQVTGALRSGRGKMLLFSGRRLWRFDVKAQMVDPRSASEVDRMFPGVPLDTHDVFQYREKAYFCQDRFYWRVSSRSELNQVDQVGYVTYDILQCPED
This section presents compounds with their documented Ki values.

{"compound": "O=C(NO)C1(S(=O)(=O)N2CCC(COCc3ccc(C(F)(F)F)cc3)CC2)CCOCC1 [Example 403]", "Ki / nM": 7.37}
{"compound": "CCCCc1ccc(C2CCN(S(=O)(=O)C3(C(=O)NO)CCNCC3)CC2)nc1 [Example 388]", "Ki / nM": 2.3}
{"compound": "O=C(NO)C1(S(=O)(=O)N2CCC(c3ccc(OCC(F)(F)F)cc3)CC2)CCOCC1 [Example 357]", "Ki / nM": 0.718}
{"compound": "COCCN1CCC(C(=O)NO)(S(=O)(=O)N2CCC(c3ncc(CC(C)C)s3)CC2)CC1 [Example 311]", "Ki / nM": 35.7}
{"compound": "O=C(NO)C1(S(=O)(=O)N2CCC(c3ccc(OCC(F)(F)C(F)(F)F)cc3)CC2)CCOCC1 [Example 330]", "Ki / nM": 3.03}
{"compound": "O=C(NO)C1(S(=O)(=O)N2CCC(COCC(F)(F)C(F)F)CC2)CCOCC1 [Example 375]", "Ki / nM": 105}
{"compound": "CCCCOc1ccc(N2CCN(S(=O)(=O)C3(C(=O)NO)CCN(C(=O)N(C)C)CC3)CC2)cc1 [Example 254]", "Ki / nM": 0.63}
{"compound": "CCCCOc1ccc(N2CCN(S(=O)(=O)C3(C(=O)NO)CCN(C(=O)c4ccccn4)CC3)CC2)cc1 [Example 277]", "Ki / nM": 0.95}
{"compound": "CCCCOc1ccc(N2CCN(S(=O)(=O)C3(C(=O)NO)CCN(C(=O)CO)CC3)CC2)cc1 [Example 271]", "Ki / nM": 1.49}
{"compound": "O=C(NO)C1(S(=O)(=O)N2CCC(c3ccc(-c4cccs4)c(F)c3)CC2)CCOCC1 [Example 407]", "Ki / nM": 1.9}
{"compound": "CCCCOc1cccc(N2CCN(S(=O)(=O)C3(C(=O)NO)CCOCC3)CC2)c1 [Example 354]", "Ki / nM": 786}
{"compound": "O=C(NO)C1(S(=O)(=O)N2CCN(c3ccc(-c4nn[nH]n4)cc3)CC2)CCOCC1 [Example 419]", "Ki / nM": 112}
{"compound": "O=C(NO)C1(S(=O)(=O)N2CCC(c3ccc(OCC(F)(F)C(F)F)cc3)CC2)CCN(CCN2CCOCC2)CC1 [Example 385]", "Ki / nM": 0.829}
{"compound": "O=C(NO)C1(S(=O)(=O)N2CCN(c3ncc(-c4ccc(Cl)cc4)s3)CC2)CCOCC1 [Example 343]", "Ki / nM": 0.489}
{"compound": "CCc1ccc(C2CCN(S(=O)(=O)C3(C(=O)NO)CCN(CCOC)CC3)CC2)s1 [Example 314]", "Ki / nM": 22}
{"compound": "CCCCOc1ccc(N2CCN(S(=O)(=O)C3(C(=O)NO)CCN(c4ccc(O)nn4)CC3)CC2)cc1 [Example 283]", "Ki / nM": 0.69}
